The values you see were collected from patent US11091522B2.

# Assay: Circular dichroism (CD) analysis of alpha-helicity
# Format: physicochemical
# Test Parameters: difference 50% TFE minus benign
# Protocol: Peptide solutions were analyzed by CD spectroscopy using a spectropolarimeter. A temperature controller was used to maintain temperature control of the optical cell. Results are expressed as mean molar ellipticity [θ] […] Peptide concentrations were determined by amino acid analysis. […]
Measured Property: Molar Ellipticity TFE-Molar Ellipticity Benign (deg cm^2 dmol^−1)
Reply numerically in deg cm^2 dmol^−1, unit not repeated.

Which Molar Ellipticity TFE-Molar Ellipticity Benign value is on record for CC[C@H](C)[C@H](NC(=O)[C@H](C)NC(=O)[C@H](C)NC(=O)[C@]1(C)CCC/C=C/CCCCCC[C@@](C)(NC(=O)[C@H](Cc2ccccc2)NC(=O)[C@@H](NC(=O)[C@H](CC(C)C)NC(C)=O)[C@@H](C)O)C(=O)N[C@@H](C)C(=O)N[C@@H](Cc2ccc(O)cc2)C(=O)N[C@@H](Cc2c[nH]c3ccccc23)C(=O)N[C@@H](C)C(=O)N[C@@H](CCC(N)=O)C(=O)N[C@@H](CC(C)C)C(=O)N1)C(=O)N[C@H](C)C(N)=O [compound 71] ? −17835.9

Would you mind doing CC(=O)N[C@@H](CC(C)C)C(=O)N[C@H](C(=O)N[C@@H](Cc1ccccc1)C(=O)N[C@]1(C)CCCCCCC=CCCC[C@@](C)(C(=O)N[C@@H](C)C(=O)N[C@@H](C)C(=O)N[C@@H](C)C(=O)N[C@@H](C)C(=O)N[C@H](C)C(N)=O)NC(=O)[C@H](CC(C)C)NC(=O)[C@H](CCC(N)=O)NC(=O)[C@H](C)NC(=O)[C@H](Cc2c[nH]c3ccccc23)NC(=O)[C@H](Cc2ccc(O)cc2)NC(=O)[C@H](C)NC1=O)[C@@H](C)O [compound 233] as well? −18554.7

###

# Assay: Pharmacokinetics of AP1 and palbociclib in non-tumor-bearing nu/nu mice
# Test Parameters: nu/nu, mouse, in vivo, 20 mg/kg
Measured Property: AUC(0-t) (µg·h/mL)
Reply numerically in µg·h/mL, unit not repeated.

Which AUC(0-t) value is on record for CC(=O)N[C@@H](CC(C)C)C(=O)N[C@H](C(=O)N[C@@H](Cc1ccccc1)C(=O)N[C@]1(C)CCCCCC/C=C\CCC[C@@](C)(C(=O)N[C@@H](C)C(=O)N[C@@H](C)C(=O)N[C@@H](C)C(=O)N[C@@H](C)C(=O)N[C@@H](C)C(=O)N[C@H](C)C(N)=O)NC(=O)[C@H](CC(C)C)NC(=O)[C@H](CCC(N)=O)NC(=O)[C@H](C)NC(=O)[C@H](Cc2c[nH]c3ccccc23)NC(=O)[C@H](Cc2ccc(O)cc2)NC(=O)[C@H](CCC(=O)O)NC1=O)[C@@H](C)O [AP1] ? 686

###

# Assay: 4-week multiple-dose GLP toxicity study in monkeys
# Type: in vivo
# Test Parameters: in vivo, intravenous; monkey HNSTD, 5 mg/kg
Measured Property: AUC(0-inf) (µg·h/mL)
Reply numerically in µg·h/mL, unit not repeated.

Which AUC(0-inf) value is on record for CC(=O)N[C@@H](CC(C)C)C(=O)N[C@H](C(=O)N[C@@H](Cc1ccccc1)C(=O)N[C@]1(C)CCCCCC/C=C\CCC[C@@](C)(C(=O)N[C@@H](C)C(=O)N[C@@H](C)C(=O)N[C@@H](C)C(=O)N[C@@H](C)C(=O)N[C@@H](C)C(=O)N[C@H](C)C(N)=O)NC(=O)[C@H](CC(C)C)NC(=O)[C@H](CCC(N)=O)NC(=O)[C@H](C)NC(=O)[C@H](Cc2c[nH]c3ccccc23)NC(=O)[C@H](Cc2ccc(O)cc2)NC(=O)[C@H](CCC(=O)O)NC1=O)[C@@H](C)O [AP1] ? 813

###

# Assay: Pharmacokinetics of AP1 and palbociclib in non-tumor-bearing nu/nu mice
# Test Parameters: nu/nu, mouse, plasma, po, 75 mg/kg, Cmax, Co-administered, nu/nu mice; AP1 20 mg/kg with palbociclib 75 mg/kg
Measured Property: Cmax (ng/mL)
Reply numerically in ng/mL, unit not repeated.

Which Cmax value is on record for `CC(=O)c1c(C)c2cnc(Nc3ccc(N4CCNCC4)cn3)nc2n(C2CCCC2)c1=O` ? 2600

###

# Tested on: plasma protein
# Assay: In vitro plasma protein binding
# Type: in vitro ADME, mouse, rat, dog, monkey, human
# Test Parameters: mouse, rat, dog, monkey, human, plasma
Measured Property: fraction unbound at 2 μM

Which fraction unbound at 2 μM value is on record for CC(=O)N[C@@H](CC(C)C)C(=O)N[C@H](C(=O)N[C@@H](Cc1ccccc1)C(=O)N[C@]1(C)CCCCCC/C=C\CCC[C@@](C)(C(=O)N[C@@H](C)C(=O)N[C@@H](C)C(=O)N[C@@H](C)C(=O)N[C@@H](C)C(=O)N[C@@H](C)C(=O)N[C@H](C)C(N)=O)NC(=O)[C@H](CC(C)C)NC(=O)[C@H](CCC(N)=O)NC(=O)[C@H](C)NC(=O)[C@H](Cc2c[nH]c3ccccc23)NC(=O)[C@H](Cc2ccc(O)cc2)NC(=O)[C@H](CCC(=O)O)NC1=O)[C@@H](C)O [AP1] ? 0.02 to 0.08

###

# Assay: Pharmacokinetics of AP1 and palbociclib in non-tumor-bearing nu/nu mice
# Test Parameters: nu/nu, mouse, plasma, po, 75 mg/kg, AUClast, Co-administered, nu/nu mice; AP1 20 mg/kg with palbociclib 75 mg/kg
Measured Property: AUC(0-t) (ng·h/mL)
Reply numerically in ng·h/mL, unit not repeated.

Which AUC(0-t) value is on record for CC(=O)c1c(C)c2cnc(Nc3ccc(N4CCNCC4)cn3)nc2n(C2CCCC2)c1=O [palbociclib] ? 29000

###

# System: SJSA1 osteosarcoma cancer cells
# Assay: cells
# Test Parameters: Homo sapiens, SJSA-1, 120 h, read-out: IC50, cellular proliferation
Measured Property: pIC50
In textbook form, pIC50 equals minus log to base ten of the concentration in mol/L.

Kindly state the measured pIC50 obtained for `CC(=O)c1c(C)c2cnc(Nc3ccc(N4CCNCC4)cn3)nc2n(C2CCCC2)c1=O` with SJSA1 osteosarcoma cancer cells. 7.22

###

# Assay: Pharmacokinetics of AP1 and palbociclib in non-tumor-bearing nu/nu mice
# Test Parameters: nu/nu, mouse, plasma, po, 75 mg/kg, AUClast, Alone, nu/nu mice; AP1 20 mg/kg or palbociclib 75 mg/kg alone
Measured Property: AUC(0-t) (ng·h/mL)
Reply numerically in ng·h/mL, unit not repeated.

Which AUC(0-t) value is on record for CC(=O)c1c(C)c2cnc(Nc3ccc(N4CCNCC4)cn3)nc2n(C2CCCC2)c1=O [palbociclib] ? 37000

###

# Assay: Pharmacokinetics of AP1 and palbociclib in non-tumor-bearing nu/nu mice
# Test Parameters: nu/nu, mouse, in vivo, 20 mg/kg
Measured Property: Cmax (µg/mL)
Reply numerically in µg/mL, unit not repeated.

Which Cmax value is on record for `CC(=O)N[C@@H](CC(C)C)C(=O)N[C@H](C(=O)N[C@@H](Cc1ccccc1)C(=O)N[C@]1(C)CCCCCC/C=C\CCC[C@@](C)(C(=O)N[C@@H](C)C(=O)N[C@@H](C)C(=O)N[C@@H](C)C(=O)N[C@@H](C)C(=O)N[C@@H](C)C(=O)N[C@H](C)C(N)=O)NC(=O)[C@H](CC(C)C)NC(=O)[C@H](CCC(N)=O)NC(=O)[C@H](C)NC(=O)[C@H](Cc2c[nH]c3ccccc23)NC(=O)[C@H](Cc2ccc(O)cc2)NC(=O)[C@H](CCC(=O)O)NC1=O)[C@@H](C)O` ? 138

###

# Tested on: plasma protein
# Assay: In vitro plasma protein binding
# Assay type: in vitro ADME, mouse, rat, dog, monkey, human
# Test Parameters: mouse and rat plasma, up to 250 μM
Measured Property: fraction unbound

Which fraction unbound value is on record for CC(=O)N[C@@H](CC(C)C)C(=O)N[C@H](C(=O)N[C@@H](Cc1ccccc1)C(=O)N[C@]1(C)CCCCCC/C=C\CCC[C@@](C)(C(=O)N[C@@H](C)C(=O)N[C@@H](C)C(=O)N[C@@H](C)C(=O)N[C@@H](C)C(=O)N[C@@H](C)C(=O)N[C@H](C)C(N)=O)NC(=O)[C@H](CC(C)C)NC(=O)[C@H](CCC(N)=O)NC(=O)[C@H](C)NC(=O)[C@H](Cc2c[nH]c3ccccc23)NC(=O)[C@H](Cc2ccc(O)cc2)NC(=O)[C@H](CCC(=O)O)NC1=O)[C@@H](C)O [AP1] ? < 0.02

###

Listing of entries alongside the reported Molar Ellipticity TFE-Molar Ellipticity Benign.
# Assay: Circular dichroism (CD) analysis of alpha-helicity
# Type: physicochemical
# Test Parameters: difference 50% TFE minus benign
Bridge positions count the residues as written; N and C are the ends. Square brackets hold non-standard residues; d marks the D form. Peptide text beside a SMILES is read from it. R8 = C=CCCCCCC[C@@](C)(N)C(=O)O; S5 = C=CCCC[C@](C)(N)C(=O)O
Reply numerically in deg cm^2 dmol^−1, unit not repeated.

[[record]]
compound = "CC(=O)N[C@@H](CC(C)C)C(=O)N[C@H](C(=O)N[C@@H](Cc1ccccc1)C(=O)N[C@]1(C)CCCCCCC=CCCC[C@@](C)(C(=O)N[C@@H](Cc2c[nH]cn2)C(=O)N[C@@H](Cc2c[nH]cn2)C(=O)N[C@@H](CC(C)C)C(=O)N[C@H](C)C(N)=O)NC(=O)[C@H](CC(C)C)NC(=O)[C@H](CCC(N)=O)NC(=O)[C@H](C)NC(=O)[C@H](Cc2c[nH]c3ccccc23)NC(=O)[C@H](Cc2ccc(O)cc2)NC(=O)[C@H](C)NC1=O)[C@@H](C)O [compound 43] (Ac-LTF[R8]AYWAQL[S5]HHL[dA]-NH2; staple 4-11)"
numeric_readout = 2912.9

[[record]]
compound = "CC(=O)N[C@@H](CC(C)C)C(=O)N[C@H](C(=O)N[C@@H](Cc1ccccc1)C(=O)N[C@]1(C)CCCCCCC=CCCC[C@@](C)(C(=O)N[C@@H](C)C(=O)N[C@@H](C)C(=O)N[C@@H](C)C(=O)N[C@H](C)C(N)=O)NC(=O)[C@H](CC(C)C)NC(=O)[C@H](CCC(N)=O)NC(=O)[C@H](C)NC(=O)[C@H](Cc2c[nH]c3ccccc23)NC(=O)[C@H](Cc2ccc(O)cc2)NC(=O)[C@H](C)NC1=O)[C@@H](C)O (single isomer, unassigned)"
numeric_readout = "−17760.8"

[[record]]
compound = "CCCC[C@H](NC(=O)[C@H](C)NC(=O)[C@H](C)NC(=O)[C@]1(C)CCC/C=C/CCCCCC[C@@](C)(NC(=O)[C@H](Cc2ccccc2)NC(=O)[C@@H](NC(=O)[C@H](CC(C)C)NC(C)=O)[C@@H](C)O)C(=O)N[C@@H](C)C(=O)N[C@@H](Cc2ccc(O)cc2)C(=O)N[C@@H](Cc2c[nH]c3ccccc23)C(=O)N[C@@H](C)C(=O)N[C@@H](CCC(N)=O)C(=O)N[C@@H](CC(C)C)C(=O)N1)C(=O)N[C@@H](C)C(N)=O"
numeric_readout = "−21407.1"


Which Molar Ellipticity TFE-Molar Ellipticity Benign value is on record for CC(=O)N[C@@H](CC(C)C)C(=O)N[C@H](C(=O)N[C@@H](Cc1ccccc1)C(=O)N[C@]1(C)CCCCCCC=CCCC[C@@](C)(C(=O)N[C@@H](CO)C(=O)N[C@@H](C)C(=O)N[C@@H](C)C(N)=O)NC(=O)[C@H](CC(C)C)NC(=O)[C@H](CCC(N)=O)NC(=O)[C@H](C)NC(=O)[C@H](Cc2c[nH]c3ccccc23)NC(=O)[C@H](Cc2ccc(O)cc2)NC(=O)[C@H](C)NC1=O)[C@@H](C)O [compound 11] (Ac-LTF[R8]AYWAQL[S5]SAA-NH2; staple 4-11) ? 16225.2
